system: 327498-153-R-J2-PDC complex spheroid growth, % test/control; assay: Anticancer human tumor 327498-153-R-J2-PDC patient-derived uterine carcinosarcoma cell line growth inhibition [Asc]; settings: second compound 0.316 µM; first compound 3 µM; hits give low values;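 also: spheroids exposed to compound for 7 days after 3 days of growth; 100% = DMSO vehicle control wells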
measured.property: viability, T/C

# compound, measured.property, test.result
data = [
    ("Cc1nc(N2CCC3(CC2)COC(C)C3N)c(CO)nc1Sc1ccnc(N)c1Cl (stereo unspecified) + Cc1c(S(C)(=O)=O)c(-c2cc(F)cc(N3CCN(c4ccc(NS(=O)(=O)c5ccc(NC(CCN6CCC(C(=O)OCCCP(=O)(O)O)CC6)CSc6ccccc6)c(S(=O)(=O)C(F)(F)F)c5)cc4)CC3)c2)c(-c2ccc(Cl)cc2)n1C(C)C", "viability, T/C", "38.9%"),
]
